Attribute: TGI
Test system: HCT-116 colon
Experiment: NCI tumour cell line growth inhibition, 48 h

Please review the following examples before continuing.
### Prompt Query TGI on HCT-116 colon for N#Cc1ccc(Oc2nc3ccccc3nc2-c2ccccc2)cc1
### Response > 100 µM

### Prompt Query TGI on HCT-116 colon for CCSc1nc(N)c2c(-c3ccc(OC)c(OC)c3)c3c(nc2n1)CCCC3
### Response > 100 µM

More entries:
### Prompt Query TGI on HCT-116 colon for Cn1cc(-c2nc(-c3c[nH]c4ncccc34)cs2)c2cc(F)ccc21
### Response 7.22 µM

### Prompt Query TGI on HCT-116 colon for CCOC(=O)/C(=C\c1ccc(O)c(OC)c1)C(=O)c1ccccc1
### Response 28.7 µM

### Prompt Query TGI on HCT-116 colon for CC(=O)[CH-]C(=O)c1ccccc1.CC(=O)[CH-]C(=O)c1ccccc1.CC[O-].CC[O-].[Zr+4]
### Response > 100 µM
